Hey, just so you know, these numbers are from paper PMC6212638.

Entries and their pIC50
# TARGET_DESC: T1, AIP (human, UniProt O00170 1-330)
# T1 construct: GST-tag-free protein spotted on nitrocellulose; also called nitrocellulose-immobilized AIP; source: E. coli BL21, purified as GST fusion (GSTrap), GST removed with PreScission protease
# T1 sequence (looked up): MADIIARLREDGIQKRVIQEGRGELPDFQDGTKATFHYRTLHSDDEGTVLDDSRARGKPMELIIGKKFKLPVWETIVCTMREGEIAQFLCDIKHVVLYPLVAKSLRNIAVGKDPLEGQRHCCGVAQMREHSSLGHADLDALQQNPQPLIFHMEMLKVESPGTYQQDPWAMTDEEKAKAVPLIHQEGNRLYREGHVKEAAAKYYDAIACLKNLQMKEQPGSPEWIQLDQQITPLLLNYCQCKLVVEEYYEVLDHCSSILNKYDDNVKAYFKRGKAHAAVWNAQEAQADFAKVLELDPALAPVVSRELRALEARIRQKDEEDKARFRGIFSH
# ASSAY_DETAILS: far-Western, overlay or dot blot; GST-tag-free FKBP51 or AIP on nitrocellulose, blocked with 3% BSA in TBS-T, probed 1 h with HRP-conjugated peptide, alone or with increasing concentrations of unlabeled peptide; luminescence quantified; IC50 estimated; n = 3
# EXPERIMENTAL_CONDITIONS: both partners purified
pIC50: −log10 of the molar value.
VALUE_TYPE: pIC50

- BINDER: "EDASRMEEVD (the 10 C-terminal residues of Hsp90β; also called Hsp90 peptide; Hsp90β-derived peptide; source: synthetic peptide (Peptide 2.0, Inc.), > 95% purity) [Hsp90β peptide]"
  VAL: 4.74
- BINDER: "EKNSVNMDLD (the 10 C-terminal residues of Hsp105; source: synthetic peptide (Peptide 2.0, Inc.), > 95% purity) [Hsp105 peptide]"
  VAL: 5.22
- BINDER: "PTYSNMEEVD (source: synthetic peptide (Peptide 2.0, Inc.), > 95% purity) [Usp19 peptide]"
  VAL: 5.05
- BINDER: "SDDEKMPDLE (the 10 C-terminal residues of p23 / PTGES3; also called p23 C-terminal peptide; source: synthetic peptide (Peptide 2.0, Inc.), > 95% purity) [p23 peptide]"
  VAL: 4.33
